# Test system: Mycobacterium tuberculosis variant bovis BCG
# Assay procedure: microbe, parasite or virus in culture
# Type: functional
Listing of entries alongside the reported MIC90.
Measurement label: MIC90 (µM)

compound="O=C(NNC(=O)C1CC1C(=O)O)c1ccncc1 (stereo not drawn)" target_system="Mycobacterium tuberculosis variant bovis BCG" reported_value=6.8
compound=Cc1cc(=O)[nH]c(-n2nc(C)cc2NC(=O)COc2ccccc2C)n1 target_system="Mycobacterium tuberculosis variant bovis BCG" reported_value=6.9
compound=CC(C)c1ccc(C(=O)Nc2ccc3c(c2)CN(C)CC3)cc1C(F)(F)F target_system="Mycobacterium tuberculosis variant bovis BCG" reported_value=6.8

* * *

# Test system: Mycobacterium tuberculosis variant bovis BCG
# Assay procedure: microbe, parasite or virus in culture
# Type: functional
Decision: MIC90 beneath 5 µM gives Met; MIC90 meeting or exceeding 5 µM gives Not met.

molecule=O=C(CSc1ccc(Cl)cc1)Nc1nc(-c2ccccn2)cs1 class_name=Met
molecule=O=C(Nc1ccc(N2CCNCC2)cc1)c1ccn2ncc(-c3cccc(Cl)c3)c2n1 class_name="Not met"
molecule=FC(F)(F)c1cc(SCc2ccccc2)nc(-c2ccccn2)n1 class_name="Not met"
molecule=Nc1ccc(C(=O)C(=O)c2ccc(N)cc2)cc1 class_name=Met
molecule=Cn1c(CNCCc2nc(C(=O)N3Cc4ccccc4C3)cs2)nc2ccccc21 class_name="Not met"
molecule=O=C(Nc1nnc(-c2ccc(Br)cc2)o1)c1cccc(C(F)(F)F)c1 class_name=Met
molecule=Cc1ccc2c(CC(=O)Nc3nc(-c4ccccn4)cs3)coc2c1 class_name="Not met"
molecule=c1ccc(-c2ccc(CN3CCC4(CC3)OCCc3sccc34)s2)cc1 class_name=Met
molecule=O=C(CCC1CCCCC1)Nc1cccc(-c2nnc(-c3ccco3)o2)c1 class_name="Not met"
molecule="CCN(Cc1nc2ccccc2c(=O)[nH]1)C1CCCc2cccnc21 (stereo unspecified)" class_name=Met
molecule=CCn1c(-c2nonc2N)nc2c(-c3cccc(Cl)c3)ncc(OCCCNCCc3c[nH]cn3)c21 class_name=Met
molecule=COc1ccc(-c2ccc(Nc3cccc(S(=O)(=O)CCN(C)Cc4ccccc4)c3)nc2)cn1 class_name="Not met"
molecule=O=C(COc1ccc(-c2ccccc2)cc1)NNC(=O)c1ccncc1 class_name="Not met"
molecule=COc1ccc(-c2nsc(NC(=O)COc3ccc(C)cc3)n2)cc1OC class_name=Met
molecule=c1coc(-c2nnc(Sc3ccnc(N4CCN(c5ccncc5)CC4)n3)n2CCN2CCOCC2)c1 class_name="Not met"

* * *

Listing of entries alongside the reported MIC90.
# Tested on: Mycobacterium tuberculosis variant bovis BCG
# Assay procedure: microbe, parasite or virus in culture
# Assay type: functional
Measurement label: MIC90 (µM)

compound_string=O=C(NNC(=O)c1cccs1)c1ccc(OCc2ccccc2)cc1 reported_value=9.9
compound_string=COc1ccc(-c2ccc(Nc3cccc(S(=O)(=O)CCNC4CCC4)c3)nc2)cn1 reported_value=1.6
compound_string=CCn1c(-c2nonc2N)nc2c(C#Cc3ccccc3)ncc(OCCCCN)c21 reported_value=8.1
compound_string=Cc1ccc(Cl)c2sc(N(CCN(C)C)C(=O)CS(=O)(=O)c3ccc(F)cc3)nc12 reported_value=6.4
compound_string=Cc1ccc2nc(C(F)(F)F)c(C(=O)NCc3cc(Cl)cc(Cl)c3)n2c1 reported_value=0.6
compound_string=COc1cc(-c2ccccc2)c(Cl)cc1C(=O)Nc1cccc2c1CCN(C)C2 reported_value=5.9
compound_string=COc1ccc(-c2nc(CCNC(=O)c3ccc(OC)cc3OC)cs2)cc1 reported_value=6.4
compound_string=NCCCOc1cccc2c(-c3ccncc3)c(-c3cccc(NC(=O)Nc4ccccc4)c3)nn12 reported_value=7.1

* * *

# Test system: Mycobacterium tuberculosis variant bovis BCG
# Assay procedure: microbe, parasite or virus in culture
# Format: functional
Listing of entries alongside the reported MIC90.
Measurement label: MIC90 (µM)

molecule=Cc1csc2nc(-c3ccccn3)nc(Nc3ccncn3)c12.O=C(O)C(F)(F)F target_system="Mycobacterium tuberculosis variant bovis BCG" measurement_label=MIC90 reported_value=1.3
molecule=COc1ccc2sc(Nc3nc(-c4ccccn4)cs3)nc2c1 target_system="Mycobacterium tuberculosis variant bovis BCG" measurement_label=MIC90 reported_value=3.5
molecule="CC1CC(NC(=O)c2ccc(Oc3ccccc3)cc2)CC(C)(C)C1 (configuration not stated)" target_system="Mycobacterium tuberculosis variant bovis BCG" measurement_label=MIC90 reported_value=9.5
molecule=Cc1ccc(C(=O)Nc2nnc(-c3ccccc3Cl)o2)cc1 target_system="Mycobacterium tuberculosis variant bovis BCG" measurement_label=MIC90 reported_value=6.1
molecule=O=c1c2sc(-c3ccc(Cl)cc3)cc2ncn1-c1ccc(OCCN2CCCC2)c(Cl)c1 target_system="Mycobacterium tuberculosis variant bovis BCG" measurement_label=MIC90 reported_value=2.1
molecule="COc1cc(CN2CCC(Cc3nc(-c4ccc5c(c4)CCO5)no3)C2)ccc1F (configuration not stated)" target_system="Mycobacterium tuberculosis variant bovis BCG" measurement_label=MIC90 reported_value=6.7
molecule=CCOc1ccc(-c2nc(-c3ccc(C(F)(F)F)c(O[C@@H]4CCN(C)C4)c3)no2)cc1 target_system="Mycobacterium tuberculosis variant bovis BCG" measurement_label=MIC90 reported_value=3.2

* * *

# System: Mycobacterium tuberculosis variant bovis BCG
# Assay procedure: microbe, parasite or virus in culture
# Type: functional
Entries get a class label from measured MIC90. See ranges: lower band (below 5 µM), central band (5 µM to below 7 µM), upper band (7 µM or more)

compound=Cc1cccc(Cn2ccc(NC(=O)c3ccc4c(c3)OCO4)n2)c1 target_system="Mycobacterium tuberculosis variant bovis BCG" class_name="upper band"
compound=Cc1cc(Oc2ccc(-n3ccnc3)cc2)nc(N2CCN[C@@H](Cc3ccccc3)C2)n1 target_system="Mycobacterium tuberculosis variant bovis BCG" class_name="central band"
compound="CC(C)n1ncc2c(C(=O)NCC(c3ccco3)N3CCCC3)cc(-c3ccccc3)nc21 (stereo not given)" target_system="Mycobacterium tuberculosis variant bovis BCG" class_name="lower band"
compound=O=C(CCCOc1ccccc1)Nc1nc(-c2ccccn2)cs1 target_system="Mycobacterium tuberculosis variant bovis BCG" class_name="central band"
compound="COc1cc(C(C)(C)C)ccc1C(=O)Nc1cccc2c1CCC2N (stereo not given)" target_system="Mycobacterium tuberculosis variant bovis BCG" class_name="lower band"
compound="O=C(/C=C/c1ccccc1C(F)(F)F)Nc1ccc2c(c1)C1CCCN1CC2 (stereo not given)" target_system="Mycobacterium tuberculosis variant bovis BCG" class_name="upper band"
compound=O=C(Nc1nnc(-c2ccc3c(c2)CCCC3)o1)c1ccc(Br)s1 target_system="Mycobacterium tuberculosis variant bovis BCG" class_name="lower band"

* * *

# Tested on: Mycobacterium tuberculosis variant bovis BCG
# Assay procedure: microbe, parasite or virus in culture
# Format: functional
Listing of entries alongside the reported MIC90.
Measurement label: MIC90 (µM)

molecule=CS(=O)(=O)Nc1cccc(-c2cnc3[nH]cc(-c4cccc(CCN)c4)c3c2)c1 target_system="Mycobacterium tuberculosis variant bovis BCG" measurement_label=MIC90 unit_info=µM reported_value=9.8
molecule="O=C(NC1CCN(Cc2ccccc2)C1)c1cccc(-c2ccc(Cl)cc2)c1 (centres undefined)" target_system="Mycobacterium tuberculosis variant bovis BCG" measurement_label=MIC90 unit_info=µM reported_value=10
molecule=Cc1cc(O)nc(-n2nc(C)cc2NC(=O)c2cc3ccccc3o2)n1 target_system="Mycobacterium tuberculosis variant bovis BCG" measurement_label=MIC90 unit_info=µM reported_value=6.2
molecule=CC(C)Oc1ccc(C(=O)Nc2nc(-c3ccccn3)cs2)cc1 target_system="Mycobacterium tuberculosis variant bovis BCG" measurement_label=MIC90 unit_info=µM reported_value=4.1
molecule="COc1ccc(-c2nc(C(=O)N3CCCCC3c3nc4ccccc4s3)cs2)cc1 (centres undefined)" target_system="Mycobacterium tuberculosis variant bovis BCG" measurement_label=MIC90 unit_info=µM reported_value=4.8
molecule=Cc1cc(Cl)cc2nc(N3CCCNCC3)oc12 target_system="Mycobacterium tuberculosis variant bovis BCG" measurement_label=MIC90 unit_info=µM reported_value=6.4
molecule=c1ccc(Cc2nn3c(-c4ccccc4)nnc3s2)cc1 target_system="Mycobacterium tuberculosis variant bovis BCG" measurement_label=MIC90 unit_info=µM reported_value=8.2
molecule=CC(C)NCc1ccc(-c2ccc(NS(=O)(=O)c3ccc(F)cc3)cc2)cc1 target_system="Mycobacterium tuberculosis variant bovis BCG" measurement_label=MIC90 unit_info=µM reported_value=3.6
molecule=CCCSc1ncccc1C(=O)Nc1ccccc1Nc1ccccc1 target_system="Mycobacterium tuberculosis variant bovis BCG" measurement_label=MIC90 unit_info=µM reported_value=0.8
molecule=CC(C)Oc1ccc(NCC(=O)Nc2ccc(F)cc2)cc1 target_system="Mycobacterium tuberculosis variant bovis BCG" measurement_label=MIC90 unit_info=µM reported_value=6.7
molecule=O=C(NC1=NCCS1)c1sc2cc(F)ccc2c1Cl target_system="Mycobacterium tuberculosis variant bovis BCG" measurement_label=MIC90 unit_info=µM reported_value=8.2
molecule=Cc1cc(C(=O)Nc2nc(-c3ccccn3)nc3ccsc23)no1 target_system="Mycobacterium tuberculosis variant bovis BCG" measurement_label=MIC90 unit_info=µM reported_value=2.8
molecule=CCOc1ccc(OCc2ccc(C(=O)NNC(=O)c3ccc([N+](=O)[O-])o3)cc2)cc1 target_system="Mycobacterium tuberculosis variant bovis BCG" measurement_label=MIC90 unit_info=µM reported_value=1.6
molecule=CN(C)c1nc2scc(-c3ccccc3)c2c(=O)o1 target_system="Mycobacterium tuberculosis variant bovis BCG" measurement_label=MIC90 unit_info=µM reported_value=1.5
